B1: MATN2 (parent)
chain: TDDSYSCHCLKGFTLNPDKKTCRR

- Variants of: B1
- TEST_DETAILS: protein stability index of a GFP-peptide fusion (GPS, HEK-293T) (PSI 1-6); higher = more stable;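 also: lentivirally expressed fusions sorted by FACS into six bins by GFP to DsRed ratio, PSI derived from sequencing read proportions per bin multiplied by bin number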
- ASSAY_CONTEXT: c terminus: a fixed tail appended
// map protein stability index to label using low end: < 2; middle: ≥ 2 and < 3; high end: ≥ 3

[
  {
    "CONSTRUCT_SEQUENCE": "TDDCYSCHCLKGFTLNPDKKTCRR [S4C]",
    "QUALITATIVE_LABEL": "low end"
  },
  {
    "CONSTRUCT_SEQUENCE": "TDDSYSNHCLKGFTLNPDKKTCRR [C7N]",
    "QUALITATIVE_LABEL": "high end"
  },
  {
    "CONSTRUCT_SEQUENCE": "TSDSYSCHCLKGFTLNPDKKTCRR [D2S]",
    "QUALITATIVE_LABEL": "middle"
  },
  {
    "CONSTRUCT_SEQUENCE": "TDDSYSCHCLKGFTLNPDKTTCRR [K20T]",
    "QUALITATIVE_LABEL": "low end"
  },
  {
    "CONSTRUCT_SEQUENCE": "TDDSYSCHNLKGFTLNPDKKTCRR [C9N]",
    "QUALITATIVE_LABEL": "high end"
  },
  {
    "CONSTRUCT_SEQUENCE": "TDDSYSYHCLKGFTLNPDKKTCRR [C7Y]",
    "QUALITATIVE_LABEL": "high end"
  },
  {
    "CONSTRUCT_SEQUENCE": "TRDSYSCHCLKGFTLNPDKKTCRR [D2R]",
    "QUALITATIVE_LABEL": "middle"
  },
  {
    "CONSTRUCT_SEQUENCE": "TDDSYSCHCLKGFTLNPDKKTCVR [R23V]",
    "QUALITATIVE_LABEL": "middle"
  },
  {
    "CONSTRUCT_SEQUENCE": "TDDSYSCHCLKGFTLNPDKKTNRR [C22N]",
    "QUALITATIVE_LABEL": "middle"
  },
  {
    "CONSTRUCT_SEQUENCE": "TDDSYSCHCLKGFTLEPDKKTCRR [N16E]",
    "QUALITATIVE_LABEL": "middle"
  },
  {
    "CONSTRUCT_SEQUENCE": "TDHSYSCHCLKGFTLNPDKKTCRR [D3H]",
    "QUALITATIVE_LABEL": "middle"
  },
  {
    "CONSTRUCT_SEQUENCE": "TDDSYSCHCLKGFTLNPDKKYCRR [T21Y]",
    "QUALITATIVE_LABEL": "middle"
  },
  {
    "CONSTRUCT_SEQUENCE": "TLDSYSCHCLKGFTLNPDKKTCRR [D2L]",
    "QUALITATIVE_LABEL": "middle"
  },
  {
    "CONSTRUCT_SEQUENCE": "TDDSYSCHCLKGFTANPDKKTCRR [L15A]",
    "QUALITATIVE_LABEL": "middle"
  },
  {
    "CONSTRUCT_SEQUENCE": "TDDSYFCHCLKGFTLNPDKKTCRR [S6F]",
    "QUALITATIVE_LABEL": "low end"
  },
  {
    "CONSTRUCT_SEQUENCE": "TDDSYSCHCLKGFFLNPDKKTCRR [T14F]",
    "QUALITATIVE_LABEL": "low end"
  },
  {
    "CONSTRUCT_SEQUENCE": "ADDSYSCHCLKGFTLNPDKKTCRR [T1A]",
    "QUALITATIVE_LABEL": "middle"
  },
  {
    "CONSTRUCT_SEQUENCE": "TDDSYSCHCLKGFTLYPDKKTCRR [N16Y]",
    "QUALITATIVE_LABEL": "middle"
  },
  {
    "CONSTRUCT_SEQUENCE": "TDDSPSCHCLKGFTLNPDKKTCRR [Y5P]",
    "QUALITATIVE_LABEL": "middle"
  },
  {
    "CONSTRUCT_SEQUENCE": "TDDSYSCHCLKGFTLNPWKKTCRR [D18W]",
    "QUALITATIVE_LABEL": "middle"
  },
  {
    "CONSTRUCT_SEQUENCE": "TDDSYSCHCLKQFTLNPDKKTCRR [G12Q]",
    "QUALITATIVE_LABEL": "middle"
  },
  {
    "CONSTRUCT_SEQUENCE": "TDDSYSIHCLKGFTLNPDKKTCRR [C7I]",
    "QUALITATIVE_LABEL": "high end"
  },
  {
    "CONSTRUCT_SEQUENCE": "TDDSHSCHCLKGFTLNPDKKTCRR [Y5H]",
    "QUALITATIVE_LABEL": "middle"
  },
  {
    "CONSTRUCT_SEQUENCE": "TDDSYSCHCLKGFTLNPDKKTQRR [C22Q]",
    "QUALITATIVE_LABEL": "middle"
  },
  {
    "CONSTRUCT_SEQUENCE": "TDDSYSCHCLKGFTLNPDKHTCRR [K20H]",
    "QUALITATIVE_LABEL": "middle"
  },
  {
    "CONSTRUCT_SEQUENCE": "TDDSYSCHGLKGFTLNPDKKTCRR [C9G]",
    "QUALITATIVE_LABEL": "high end"
  },
  {
    "CONSTRUCT_SEQUENCE": "TDDSYSCHCLKGFTLNPDSKTCRR [K19S]",
    "QUALITATIVE_LABEL": "middle"
  },
  {
    "CONSTRUCT_SEQUENCE": "TDDSYSCHCLKGFNLNPDKKTCRR [T14N]",
    "QUALITATIVE_LABEL": "middle"
  },
  {
    "CONSTRUCT_SEQUENCE": "TDDSYSCHCLKGFTLNPDKLTCRR [K20L]",
    "QUALITATIVE_LABEL": "low end"
  },
  {
    "CONSTRUCT_SEQUENCE": "TDDSYSCHCLKGFSLNPDKKTCRR [T14S]",
    "QUALITATIVE_LABEL": "middle"
  },
  {
    "CONSTRUCT_SEQUENCE": "TDDSYSCHCLKGFTQNPDKKTCRR [L15Q]",
    "QUALITATIVE_LABEL": "middle"
  },
  {
    "CONSTRUCT_SEQUENCE": "TDDSYSCHCLKGFTLNPDKKTVRR [C22V]",
    "QUALITATIVE_LABEL": "high end"
  },
  {
    "CONSTRUCT_SEQUENCE": "TDDSYSCHCLKGFTLNSDKKTCRR [P17S]",
    "QUALITATIVE_LABEL": "middle"
  },
  {
    "CONSTRUCT_SEQUENCE": "TCDSYSCHCLKGFTLNPDKKTCRR [D2C]",
    "QUALITATIVE_LABEL": "low end"
  },
  {
    "CONSTRUCT_SEQUENCE": "TDDSYSCHCLKGFTLNPDKKTCRM [R24M]",
    "QUALITATIVE_LABEL": "middle"
  },
  {
    "CONSTRUCT_SEQUENCE": "TDDSYSCHCLKGFTLNPDNKTCRR [K19N]",
    "QUALITATIVE_LABEL": "middle"
  },
  {
    "CONSTRUCT_SEQUENCE": "TDDSYSCHCLKGFTLNPDKKTCWR [R23W]",
    "QUALITATIVE_LABEL": "middle"
  },
  {
    "CONSTRUCT_SEQUENCE": "TDDSYSCHCLKGFTLLPDKKTCRR [N16L]",
    "QUALITATIVE_LABEL": "middle"
  },
  {
    "CONSTRUCT_SEQUENCE": "TDDSYSCHCLKGFTLQPDKKTCRR [N16Q]",
    "QUALITATIVE_LABEL": "low end"
  },
  {
    "CONSTRUCT_SEQUENCE": "TDDSYSCHCLKCFTLNPDKKTCRR [G12C]",
    "QUALITATIVE_LABEL": "middle"
  },
  {
    "CONSTRUCT_SEQUENCE": "TDDSYSTHCLKGFTLNPDKKTCRR [C7T]",
    "QUALITATIVE_LABEL": "high end"
  },
  {
    "CONSTRUCT_SEQUENCE": "TDDSYSCHCFKGFTLNPDKKTCRR [L10F]",
    "QUALITATIVE_LABEL": "middle"
  },
  {
    "CONSTRUCT_SEQUENCE": "TDDSYSDHCLKGFTLNPDKKTCRR [C7D]",
    "QUALITATIVE_LABEL": "high end"
  },
  {
    "CONSTRUCT_SEQUENCE": "TDDSYSCHCLKVFTLNPDKKTCRR [G12V]",
    "QUALITATIVE_LABEL": "low end"
  },
  {
    "CONSTRUCT_SEQUENCE": "TDDSYSCHCLKAFTLNPDKKTCRR [G12A]",
    "QUALITATIVE_LABEL": "middle"
  },
  {
    "CONSTRUCT_SEQUENCE": "TDDSYSCHCLKGFTLNKDKKTCRR [P17K]",
    "QUALITATIVE_LABEL": "middle"
  },
  {
    "CONSTRUCT_SEQUENCE": "TDDSYSCHCLKGFTLNPDKKTCKR [R23K]",
    "QUALITATIVE_LABEL": "middle"
  },
  {
    "CONSTRUCT_SEQUENCE": "TDDSYSCHCLKGFTLNPDKKTKRR [C22K]",
    "QUALITATIVE_LABEL": "high end"
  },
  {
    "CONSTRUCT_SEQUENCE": "TDDSYECHCLKGFTLNPDKKTCRR [S6E]",
    "QUALITATIVE_LABEL": "middle"
  },
  {
    "CONSTRUCT_SEQUENCE": "TDDSYSCHCLKGFTLNPDRKTCRR [K19R]",
    "QUALITATIVE_LABEL": "middle"
  }
]
